Here, each record is paired with measured pEC50 data.
Molecular target: T1, recombinant rat CTGF protein (R&D Systems) (rat, UniProt Q9R1E9 25-347)
T1 construct: Bought; also called rCTGF
T1 sequence: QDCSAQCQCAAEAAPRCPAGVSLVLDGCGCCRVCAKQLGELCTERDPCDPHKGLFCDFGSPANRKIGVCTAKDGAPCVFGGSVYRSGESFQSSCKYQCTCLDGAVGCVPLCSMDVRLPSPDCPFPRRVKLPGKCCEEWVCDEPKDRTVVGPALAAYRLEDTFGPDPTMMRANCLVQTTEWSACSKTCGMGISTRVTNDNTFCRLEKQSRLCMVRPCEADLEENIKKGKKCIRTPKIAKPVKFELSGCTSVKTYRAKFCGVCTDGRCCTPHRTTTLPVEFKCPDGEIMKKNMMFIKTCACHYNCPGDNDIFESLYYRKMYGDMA
Test: ELISA, coated target
pEC50: −log10 of the molar value.

binder	pEC50
lipocalin mutein of SEQ ID NO: 7 (designed binder, Parent hNGAL mutein; also called hNGAL mutein) QDSTSDLIPAPPLSKVPLQQNFQDNQFHGKWYVVGLAGNYGLRTDKRPSKMFATIYELKEDKSYDVTSVRFEQERCHYTIRTFVPGSQPGEFTTGSIKSRPGQTSSLVRVVSTNYNQHAMVFFKSVIQNREYFAITLYGRTKELTSELKENFIRFSKSLGLPENHIVFPVPIDQCIDGSAWSHPQFEK	7.39
lipocalin mutein of SEQ ID NO: 29 (designed binder, Parent hNGAL mutein; also called hNGAL mutein) QDSTSDLIPAPPLSKVPLQQNFQDNQFHGKWYVVGWAGNIKLREDKDPFKMSATIYELKEDKSYNVTEVVFEQKKCHYIIKTFVPGSQPGEFTLGDIKSPPGETSSLVRVVSTNYNQHAMVFFKKVFQNREFFWITLYGRTKELTSELKENFIRFSKSLGLPENHIVFPVPIDQCIDGSAWSHPQFEK	7.70
lipocalin mutein of SEQ ID NO: 9 (designed binder, Parent hNGAL mutein; also called hNGAL mutein) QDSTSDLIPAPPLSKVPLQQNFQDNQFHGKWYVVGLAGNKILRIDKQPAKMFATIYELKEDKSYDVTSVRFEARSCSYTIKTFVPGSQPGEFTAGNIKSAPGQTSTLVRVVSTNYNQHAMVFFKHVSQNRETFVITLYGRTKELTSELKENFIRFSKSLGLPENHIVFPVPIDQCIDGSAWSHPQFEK	7.52
lipocalin mutein of SEQ ID NO: 25 (designed binder, Parent hNGAL mutein; also called hNGAL mutein) QDSTSDLIPAPPLSKVPLQQNFQDNQFHGKWYVVGMAGNFRLREDKDPSKMGATIYELKEDKSYNVTQVQFDDKKCLYVIETFVPGSQPGEFTLGAIKSFPGFTSQLVRVVSTNYNQHAMVFFKKVYQNREVFWITLYGRTKELTSELKENFIRFSKSLGLPENHIVFPVPIDQCIDGSAWSHPQFEK	7.64
